tested on: Pyricularia oryzae; experiment: whole plant or invertebrate; assay type: in vivo; settings: Pyricularia oryzae, read-out: Observed Efficacy
# pest or weed control at 0.05 ppm per record follows

[
  {
    "molecule": "CNC(=O)/C(=N/OC)c1ccccc1Oc1ccccc1 [Metominostrobin, metominostrobin]",
    "target-desc": "Pyricularia oryzae",
    "result-unit": "%",
    "pest or weed control at 0.05 ppm": 17
  },
  {
    "molecule": "N#Cc1sc2c(=O)c3ccccc3c(=O)c=2sc1C#N [Dithianon, dithianon]",
    "target-desc": "Pyricularia oryzae",
    "result-unit": "%",
    "pest or weed control at 0.05 ppm": 34
  },
  {
    "molecule": "COC(=O)N(OC)c1ccccc1COc1ccn(-c2ccc(Cl)cc2)n1 [Pyraclostrobin, pyraclostrobin]",
    "target-desc": "Pyricularia oryzae",
    "result-unit": "%",
    "pest or weed control at 0.05 ppm": 16
  },
  {
    "molecule": "CC1COC(Cn2cncn2)(c2ccc(Oc3ccc(Cl)cc3)cc2Cl)O1 (stereo not shown) [Difenconazole, difenoconazole]",
    "target-desc": "Pyricularia oryzae",
    "result-unit": "%",
    "pest or weed control at 0.05 ppm": 24
  },
  {
    "molecule": "O=C1c2ccccc2C(=O)N1SC(Cl)(Cl)Cl [Folpet, folpet]",
    "target-desc": "Pyricularia oryzae",
    "result-unit": "%",
    "pest or weed control at 0.05 ppm": 34
  },
  {
    "molecule": "O=C(Nc1ccccc1-c1ccc(Cl)cc1)c1cccnc1Cl [Boscalid, boscalid]",
    "target-desc": "Pyricularia oryzae",
    "result-unit": "%",
    "pest or weed control at 0.05 ppm": 24
  },
  {
    "molecule": "CC1CC(C)(C)c2c(F)ccc(NC(=O)c3cn(C)nc3C(F)F)c21 (stereo not shown) [Fluindapyr]",
    "target-desc": "Pyricularia oryzae",
    "result-unit": "%",
    "pest or weed control at 0.05 ppm": 11
  },
  {
    "molecule": "CC(C)(C)C(O)(CCc1ccc(Cl)cc1)Cn1cncn1 (stereo not shown) [Tebuconazole, tebuconazole]",
    "target-desc": "Pyricularia oryzae",
    "result-unit": "%",
    "pest or weed control at 0.05 ppm": 17
  },
  {
    "molecule": "CON=C(C(=O)OC)c1ccccc1CON=C(C)c1cccc(C(F)(F)F)c1 [Trifloxystrobin, trifloxystrobin]",
    "target-desc": "Pyricularia oryzae",
    "result-unit": "%",
    "pest or weed control at 0.05 ppm": 24
  },
  {
    "molecule": "OC(Cc1ccccc1Cl)(Cn1nc[nH]c1=S)C1(Cl)CC1 (stereo not shown) [Prothioconazole, prothioconazole]",
    "target-desc": "Pyricularia oryzae",
    "result-unit": "%",
    "pest or weed control at 0.05 ppm": 17
  }
]
